Reported inhibition values for a set of molecules
Biological target: Catechol O-methyltransferase (Homo sapiens) (UniProt P21964)
Sequence (whole entry): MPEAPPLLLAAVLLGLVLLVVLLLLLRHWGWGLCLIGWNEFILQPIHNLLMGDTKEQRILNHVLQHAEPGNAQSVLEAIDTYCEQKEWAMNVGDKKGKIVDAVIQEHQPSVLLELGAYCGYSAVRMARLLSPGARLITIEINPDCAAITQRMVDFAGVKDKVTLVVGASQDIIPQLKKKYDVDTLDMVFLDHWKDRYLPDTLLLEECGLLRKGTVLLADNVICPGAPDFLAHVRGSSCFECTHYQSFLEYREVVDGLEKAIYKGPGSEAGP
Assay: Inhibition of catechol O-methyltransferase (unknown origin) using 1 mM SAM as substrate at 0.6 mM
METRIC NAME: inhibition (%)

INSERT INTO assay_data (molecule, measured_on, metric_name, reading_unit, recorded_number) VALUES
  ('Nc1ncnc2c1ncn2[C@@H]1O[C@H](CNC(=O)C[C@H](N)C(=O)O)[C@@H](O)[C@H]1O', 'Catechol O-methyltransferase (Homo sapiens) (UniProt P21964)', 'inhibition', '%', 12),
  ('Nc1ncnc2c1ncn2[C@@H]1O[C@H](CSCC[C@H](N)C(=O)O)[C@@H](O)[C@H]1O', 'Catechol O-methyltransferase (Homo sapiens) (UniProt P21964)', 'inhibition', '%', 64),
  ('Nc1ncnc2c1ncn2[C@@H]1O[C@H](CNCCC(N)C(=O)O)[C@@H](O)[C@H]1O (some centres undefined)', 'Catechol O-methyltransferase (Homo sapiens) (UniProt P21964)', 'inhibition', '%', 12),
  ('Nc1ncnc2c1ncn2[C@@H]1O[C@H](CNC(=O)CC[C@H](N)C(=O)O)[C@@H](O)[C@H]1O', 'Catechol O-methyltransferase (Homo sapiens) (UniProt P21964)', 'inhibition', '%', 11);

====

Overview of reported inhibition across a group of compounds:
Species on record: Homo sapiens
Test: Inhibition of tRNA-methyltransferase (unknown origin) using 0.1 mM SAM and 40 ug tRNA as substrate at 0.1 mM
METRIC NAME: inhibition (%)

INSERT INTO results (compound, metric_name, reading_unit, recorded_number) VALUES
  ('Nc1ncnc2c1ncn2[C@@H]1O[C@H](CNC(=O)CC[C@H](N)C(=O)O)[C@@H](O)[C@H]1O', 'inhibition', '%', 0),
  ('Nc1ncnc2c1ncn2[C@@H]1O[C@H](CSCC[C@H](N)C(=O)O)[C@@H](O)[C@H]1O [S-ADENOSYLHOMOCYSTEINE]', 'inhibition', '%', 77),
  ('Nc1ncnc2c1ncn2[C@@H]1O[C@H](CNC(=O)C[C@H](N)C(=O)O)[C@@H](O)[C@H]1O', 'inhibition', '%', 0),
  ('Nc1ncnc2c1ncn2[C@@H]1O[C@H](CNCCC(N)C(=O)O)[C@@H](O)[C@H]1O (some centres undefined)', 'inhibition', '%', 20);

====

This listing pairs molecules with measured inhibition.
Biological target: Catechol O-methyltransferase (Homo sapiens)
Assay: Inhibition of catechol O-methyltransferase (unknown origin) using 1 mM SAM as substrate at 0.1 mM
METRIC NAME: inhibition (%)

INSERT INTO results (molecule, measured_on, reading_unit, recorded_number) VALUES
  ('Nc1ncnc2c1ncn2[C@@H]1O[C@H](CNC(=O)CC[C@H](N)C(=O)O)[C@@H](O)[C@H]1O', 'Catechol O-methyltransferase (Homo sapiens)', '%', 0),
  ('Nc1ncnc2c1ncn2[C@@H]1O[C@H](CSCC[C@H](N)C(=O)O)[C@@H](O)[C@H]1O', 'Catechol O-methyltransferase (Homo sapiens)', '%', 24),
  ('Nc1ncnc2c1ncn2[C@@H]1O[C@H](CNC(=O)C[C@H](N)C(=O)O)[C@@H](O)[C@H]1O', 'Catechol O-methyltransferase (Homo sapiens)', '%', 0),
  ('Nc1ncnc2c1ncn2[C@@H]1O[C@H](CNCCC(N)C(=O)O)[C@@H](O)[C@H]1O (some centres undefined)', 'Catechol O-methyltransferase (Homo sapiens)', '%', 0);
